- System: NCI-H460
- ASSAY_NAME: Cytotoxicity against human H460 cells
- Type: functional
Reported GI50 values are given for each entry in this list.
MEASUREMENT_TYPE: GI50 (µg/mL)

COMPOUND	QUALIFIER	VALUE_REPORTED
COc1ccc(CCC(=O)c2c(O)cc(O)cc2OC)cc1	=	44.7
C=C(C)[C@@H]1CC[C@]2(C(=O)O)CC[C@]3(C)[C@H](CC[C@@H]4[C@@]5(C)CC[C@H](O)C(C)(C)[C@@H]5CC[C@]43C)[C@@H]12	=	29.7
Cc1cc(O)c2c(c1)C(=O)c1ccc(O)c(O)c1C2=O	=	4.8
C/C=C1/CN2CC[C@@]34c5ccccc5N5/C=C6/[C@H]7C[C@@H]8N(CC[C@@]89c8ccccc8N(/C=C(/[C@H]1C[C@H]23)[C@H]54)[C@@H]69)C/C7=C/C [BISNORDIHYDROTOXIFERINE]	=	1.6
COc1cc(O)cc(O)c1C(=O)CCc1ccc2c(c1)OCO2	=	27.4
Cc1cc(O)c2c(c1)C(=O)c1cccc(O)c1C2=O	>	62.5

----------
- Test system: Mycobacterium tuberculosis
- ASSAY_NAME: Antimicrobial activity against Mycobacterium tuberculosis H37Rv at 25 ug/ml
- Type: functional, organism-based
Calls of active or inactive are those of the source. No cut-off for these calls is given here.
MEASUREMENT_TYPE: Activity

>>> print(df.to_string())
                           structure_string  value_reported
0       COc1ccc(CCC(=O)c2c(O)cc(O)cc2OC)cc1        inactive
1    Cc1cc(O)c2c(c1)C(=O)c1ccc(O)c(O)c1C2=O        inactive
2  C=C(C)[C@@H]1CC[C@]2(C(=O)O)CC[C@]3(C)[C@H](CC[C@@H]4[C@@]5(C)CC[C@H](O)C(C)(C)[C@@H]5CC[C@]43C)[C@@H]12        inactive
3       Cc1cc(O)c2c(c1)C(=O)c1cccc(O)c1C2=O        inactive
4    COc1cc(O)cc(O)c1C(=O)CCc1ccc2c(c1)OCO2        inactive
